The measured values listed here are drawn from the Human Domainome abundance scans (Beltran et al. 2025).

B1: E3 ubiquitin-protein ligase Midline-1, residues 172 to 214; numbered along this chain, O15344 (parent)
chain: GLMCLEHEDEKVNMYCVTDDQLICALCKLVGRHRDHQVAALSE

Variants of: B1
Experiment: abundance fitness (aPCA) (normalised: wild type 0, dead -1); higher = more abundant; growth selection in yeast, the domain comes from the species named
Condition summary: Homo sapiens
The following variants are shown together with reported abundance fitness values.

Sequence code | abundance fitness
GLMCLEHEDEKVFMYCVTDDQLICALCKLVGRHRDHQVAALSE [N13F] | 0.354
GLMCLEHEDEPVNMYCVTDDQLICALCKLVGRHRDHQVAALSE [K11P] | -0.259
GLMCLEHEDEKVNMYCVTDDQLICAPCKLVGRHRDHQVAALSE [L26P] | 0.295
GLMCLEHEDEKVNMYCVYDDQLICALCKLVGRHRDHQVAALSE [T18Y] | -0.482
GVMCLEHEDEKVNMYCVTDDQLICALCKLVGRHRDHQVAALSE [L2V] | 0.233
GLMCLEHEDEKVNMYCVTDDQLICALCKCVGRHRDHQVAALSE [L29C] | 0.025
GLMCLEHEDEKVNMYCVTDDQLKCALCKLVGRHRDHQVAALSE [I23K] | -0.312
GLMCLEHEDEKVNMYCVTDDQLSCALCKLVGRHRDHQVAALSE [I23S] | -0.369
GLMCLEHEDEKVNMYCVTDDRLICALCKLVGRHRDHQVAALSE [Q21R] | 0.031
GLMCLEHEDEKVNMYCVTDDQLICALCKLVGRHRDNQVAALSE [H36N] | -0.376
GLMCLEHEDEKVNMYCVTDDQLICALCKLWGRHRDHQVAALSE [V30W] | -0.309
GLMCLEHEDEKVNMYCVTDDVLICALCKLVGRHRDHQVAALSE [Q21V] | 0.044
GLMCLEHEDEKVNMYCVTPDQLICALCKLVGRHRDHQVAALSE [D19P] | -0.723
GLMCLEHEDEKVNMYCVTDDQLICALCKLVKRHRDHQVAALSE [G31K] | -0.065
GLMCLEHEDEKVNMYCVTDDQLICALCKLVGRHRCHQVAALSE [D35C] | -0.142
GLMCLEHEDEKVNMYCVTDDQLICALCFLVGRHRDHQVAALSE [K28F] | -0.316
GLMPLEHEDEKVNMYCVTDDQLICALCKLVGRHRDHQVAALSE [C4P] | -1.18
GLMCLEHEDEKVNMYCVTLDQLICALCKLVGRHRDHQVAALSE [D19L] | -1.04
GLMCLEAEDEKVNMYCVTDDQLICALCKLVGRHRDHQVAALSE [H7A] | -0.703
GLMCLEHEDEKVNMYCVTDDQLICALSKLVGRHRDHQVAALSE [C27S] | -0.807
GLMCLEHLDEKVNMYCVTDDQLICALCKLVGRHRDHQVAALSE [E8L] | 0.108
GLMCLEHEDEKVNMYCVTDDQLICALCKFVGRHRDHQVAALSE [L29F] | -0.262
